- PROCEDURE_SUMMARY: chemical genetic growth profiling, strain panel (AID 1159580);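 note: tested at 20 µM; growth read once vehicle control cultures reached saturation at 30 °C; lower values mean less growth of the strain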
- MEASUREMENT_CONDITIONS: S. cerevisiae deletion strains, growth OD, locus YOL147C, strain pex11
Out of some 5,500 compounds screened, about 2,000 (36%) were called active. Roughly 18% stayed inconclusive and do not appear here. Cut-off read from the data, not from the text of the source: active = normalized growth mostly below about 0.91 (no sharp cut-off); inconclusive = no clear call, values can overlap the other calls; inactive = mostly above about 0.92. The list shows a part of the results.
Output constraint: value belongs to active, inactive

Exam item: Please let me know the test result on file for C[C@H]1CC2C([C@@H](O)C[C@@]3(C)C2CC[C@]3(O)C(=O)CO)[C@@]2(C)C=CC(=O)C=C12 (some centres not stated) .
Marked response: inactive

Exam item: Please let me know the test result on file for CCS(=O)CCSP(=O)(OC)OC (configuration not stated) .
Marked response: inactive

Exam item: Please let me know the test result on file for CCN(CC)CCCC(C)Nc1c2ccc(Cl)cc2nc2ccc(OC)cc12 (configuration not stated) .
Marked response: active

Exam item: Please let me know the test result on file for "CCOC(=O)CCC(=O)O[C@H]1[C@H](O[C@@H]2[C@@H](C)[C@H](O[C@H]3C[C@@](C)(OC)[C@@H](O)[C@H](C)O3)[C@@H](C)C(=O)O[C@H](CC)[C@@](C)(O)[C@H](O)[C@@H](C)C(=O)[C@H](C)C[C@@]2(C)O)O[C@H](C)C[C@@H]1N(C)C" .
Marked response: inactive

Exam item: Please let me know the test result on file for "CC[C@H]1OC(=O)[C@H](C)[C@@H](O[C@H]2C[C@@](C)(OC)[C@@H](O)[C@H](C)O2)[C@H](C)[C@@H](O[C@@H]2O[C@H](C)C[C@H](N(C)C)[C@H]2O)[C@](C)(O)C[C@@H](C)CN(C)[C@H](C)[C@@H](O)[C@]1(C)O" .
Marked response: inactive

Exam item: Please let me know the test result on file for "c1ccc(N=Nc2ccccc2)cc1" .
Marked response: inactive

Exam item: Please let me know the test result on file for CCN(CC)CCCC(C)Nc1ccnc2cc(Cl)ccc12 (configuration not stated) .
Marked response: inactive

* * *

- PROCEDURE_SUMMARY: chemical genetic growth profiling, strain panel (AID 1159580);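 note: tested at 20 µM; growth read once vehicle control cultures reached saturation at 30 °C; lower values mean less growth of the strain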
- MEASUREMENT_CONDITIONS: S. cerevisiae deletion strains, growth OD, locus YCL016C, strain dcc1
Screen size: about 5,500 compounds; about 2,000 (36%) were called active. Roughly 18% stayed inconclusive and do not appear here. No stated cut-off is given here; in the data, active means normalized growth mostly below about 0.91 (no sharp cut-off); inconclusive means no clear call, values can overlap the other calls; inactive means mostly above about 0.92. The list shows a part of the results.
Output constraint: value belongs to active, inactive

Exam item: Please let me know the test result on file for CN1CCCN=C1COC(=O)C(O)(c1ccccc1)C1CCCCC1 (configuration not stated) .
Marked response: inactive

Exam item: Please let me know the test result on file for CCOC(=O)C(=O)C1(C(=O)OCC)Oc2cc(OC)cc(OC)c2C(=O)C1c1ccccc1 (configuration not stated) .
Marked response: inactive

Exam item: Please let me know the test result on file for C=Cc1c2[nH]c(c1C)C=c1[nH]c(c(C)c1C=C)=CC1N=C(C=c3[nH]c(c(C)c3CCC(=O)O)=C2)C(CCC(=O)O)=C1C (configuration not stated) .
Marked response: inactive

Exam item: Please let me know the test result on file for CC(C[N+](C)(C)C)OC(N)=O (configuration not stated) .
Marked response: inactive

Exam item: Please let me know the test result on file for CC(=O)O[C@@H]1C[C@@]2(C)C(CC[C@@H]2C(C)=O)C2CCC3=CC(=O)CC[C@]3(C)C21 (some centres not stated) .
Marked response: inactive

Exam item: Please let me know the test result on file for "COc1ccc2c(c1)OCc1c-2oc2cc(OC)ccc12" .
Marked response: active

Exam item: Please let me know the test result on file for "NC(=O)c1ccc[n+]([C@@H]2O[C@H](COP(=O)([O-])OP(=O)(O)OC[C@H]3O[C@@H](n4cnc5c(N)ncnc54)[C@H](O)[C@@H]3O)[C@@H](O)[C@H]2O)c1" .
Marked response: inactive

Exam item: Please let me know the test result on file for CCN(CCO)CCCC(C)Nc1ccnc2cc(Cl)ccc12 (configuration not stated) .
Marked response: inactive

Exam item: Please let me know the test result on file for "CN1CCC(=C2c3ccccc3CCc3sccc32)CC1" .
Marked response: inactive

Exam item: Please let me know the test result on file for "COc1ccc2c(c1OC)C(=O)O[C@@H]2[C@H]1c2cc3c(cc2CCN1C)OCO3" .
Marked response: inactive

Exam item: Please let me know the test result on file for "COc1cc(/C=C/C(=O)/C=C(O)/C=C/c2ccc(O)c(OC)c2)ccc1O" .
Marked response: active

Exam item: Please let me know the test result on file for CCN(CC)CCCC(C)Nc1ccnc2cc(Cl)ccc12 (configuration not stated) .
Marked response: inactive

Exam item: Please let me know the test result on file for "CN1CCC(=C2c3ccccc3CC(=O)c3sccc32)CC1" .
Marked response: inactive

Exam item: Please let me know the test result on file for C[C@]12CCC(=O)C=C1CCC1C2CC[C@@]2(C)C1CC[C@@H]2O (some centres not stated) .
Marked response: inactive

Exam item: Please let me know the test result on file for "COc1ccc2c(C)cc(=O)oc2c1" .
Marked response: inactive

Exam item: Please let me know the test result on file for CCN(CC)CCCC(C)Nc1c2ccc(Cl)cc2nc2ccc(OC)cc12 (configuration not stated) .
Marked response: active

Exam item: Please let me know the test result on file for "CCOC(=O)C(C)(C)Oc1ccc(Cl)cc1" .
Marked response: inactive

Exam item: Please let me know the test result on file for CCOC(=O)C(Cc1ccc(O)cc1)NC(C)=O (configuration not stated) .
Marked response: inactive

Exam item: Please let me know the test result on file for "CC(C)(O)[C@@H]1[C@H]2OC(=O)[C@@H]1[C@]1(O)C[C@H]3O[C@]34C(=O)O[C@H]2[C@]14C" .
Marked response: inactive

Exam item: Please let me know the test result on file for "C[N+](C)(C)CCOC(N)=O" .
Marked response: inactive

Exam item: Please let me know the test result on file for "CC(=O)OCC[N+](C)(C)C" .
Marked response: inactive

Exam item: Please let me know the test result on file for COCCc1ccc(OCC(O)CNC(C)C)cc1 (configuration not stated) .
Marked response: inactive

* * *

- PROCEDURE_SUMMARY: chemical genetic growth profiling, strain panel (AID 1159580);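 note: tested at 20 µM; growth read once vehicle control cultures reached saturation at 30 °C; lower values mean less growth of the strain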
- MEASUREMENT_CONDITIONS: S. cerevisiae deletion strains, growth OD, locus YNL161W, strain CBK1
In all, about 5,500 compounds went through this assay and about 2,000 (36%) were called active. Another 18% or so got no clear call; they are omitted. Rule as the data show it: active = normalized growth mostly below about 0.91 (no sharp cut-off); inconclusive = no clear call, values can overlap the other calls; inactive = mostly above about 0.92. The list shows a part of the results.
Output constraint: value belongs to active, inactive

Exam item: Please let me know the test result on file for "Cc1cc(Cl)ccc1NNC(=O)c1ccno1" .
Marked response: inactive

Exam item: Please let me know the test result on file for CS(=NC(=O)c1cccc(Cl)c1)c1ccc(OC(=O)c2ccc(Cl)cc2)cc1 (stereo unspecified) .
Marked response: inactive

Exam item: Please let me know the test result on file for "Cc1nnsc1C(=O)NNc1c(Cl)cccc1Cl" .
Marked response: inactive

Exam item: Please let me know the test result on file for COc1cc2c(cc1OC)C(C)N(C(=O)c1sc3ccccc3c1Cl)CC2 (stereo unspecified) .
Marked response: inactive

Exam item: Please let me know the test result on file for "COc1cc(NC(=S)NNS(=O)(=O)c2ccc(C)cc2)c(OC)cc1Cl" .
Marked response: inactive

Exam item: Please let me know the test result on file for "COc1ccc(NNC(=O)c2sc3ccccc3c2Cl)cc1" .
Marked response: inactive

Exam item: Please let me know the test result on file for "COc1ccc(CN2CSC(=S)N(Cc3ccc(OC)cc3)C2)cc1" .
Marked response: inactive

Exam item: Please let me know the test result on file for "CC(C)(C)CN/C(C#N)=C(/C#N)NCc1cccc(Cl)c1" .
Marked response: inactive

Exam item: Please let me know the test result on file for "N#CC(C#N)=C(SCc1c(Cl)cccc1Cl)SCc1c(Cl)cccc1Cl" .
Marked response: inactive

Exam item: Please let me know the test result on file for "O=C(CSc1nnnn1-c1ccccc1)c1ccccc1" .
Marked response: inactive

Exam item: Please let me know the test result on file for "Cc1cc(NNC(=O)c2ccccc2Cl)nc2c1c(C)nn2C" .
Marked response: inactive

Exam item: Please let me know the test result on file for OC1(C(F)(F)F)CC(C23CC4CC(CC(C4)C2)C3)=NN1 (stereo unspecified) .
Marked response: active

Exam item: Please let me know the test result on file for "COc1ccc(/C=C2\CSc3ccc(F)cc3C2=O)cc1" .
Marked response: inactive

Exam item: Please let me know the test result on file for "Cc1cc(C(=O)NNc2ccc(F)cc2F)no1" .
Marked response: inactive

Exam item: Please let me know the test result on file for "Cc1c(Cc2ccc(F)cc2)c(=O)oc2cc(O)ccc12" .
Marked response: inactive

Exam item: Please let me know the test result on file for "COc1cc(NC(=S)N(C)C)c(OC)cc1Cl" .
Marked response: inactive

Exam item: Please let me know the test result on file for "Cc1nnsc1C(=O)Nc1cc(C(F)(F)F)cc(C(F)(F)F)c1" .
Marked response: inactive

Exam item: Please let me know the test result on file for "CCOC(=O)CSC(=S)NCc1ccc(C)cc1" .
Marked response: inactive

Exam item: Please let me know the test result on file for "CC(=O)CSc1nnc(-c2ccc(C(C)(C)C)cc2)n1-c1ccc(Cl)cc1" .
Marked response: inactive

Exam item: Please let me know the test result on file for "Nc1ccccc1SCc1c(Cl)cccc1Cl" .
Marked response: inactive

Exam item: Please let me know the test result on file for "S=C(Nc1ccc(Cl)cc1Cl)N(c1cccc(Cl)c1)c1nc2ccccc2s1" .
Marked response: inactive

Exam item: Please let me know the test result on file for "O=C(NNc1ccccc1F)c1ccno1" .
Marked response: inactive

Exam item: Please let me know the test result on file for O=C1C(=O)N(CN2CCc3c([nH]c4ccccc34)C2C(F)(F)F)c2ccc(F)cc21 (stereo unspecified) .
Marked response: inactive

Exam item: Please let me know the test result on file for Cc1ccc(OCC2SCCN2C(=O)c2ccc(C(F)(F)F)cc2)c([N+](=O)[O-])c1 (stereo unspecified) .
Marked response: inactive

Exam item: Please let me know the test result on file for "Cc1ccc(Sc2c(Sc3ccc(C)cc3)c(=O)c2=O)cc1" .
Marked response: inactive

Exam item: Please let me know the test result on file for "N#Cc1ccc(S(=O)(=O)Nc2ccccc2Oc2ccc(Cl)cc2Cl)cc1" .
Marked response: inactive
